// provenance: PubChem BioAssay (NCATS)

- experiment: qHTS for identification of novel therapeutic agents for treatment of microphthalmiaassociated transcription factor (MiT) renal cell carcinoma (RCC) (AID 1963991);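 note: curves scaled with 100% = DMSO viability and 0% = empty wells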
- conditionDetails: TFE3-RCC UOK109 viability, CellTiter-Glo, 48 h; measured here: UOK109 Z-AUC; stronger effect = lower value
Results filed as inconclusive are left out.

# compound, z-score
measured = [
    ("O=C(O)c1ccc(-c2c[nH]c3ncc(-c4ccccc4)cc23)cc1C1CCCC1", 1.28),
    ("C=C1C(=O)OC2C=C(C)CCC=C(C)CCC12 (stereo not given)", 0.459),
    ("CCOC(=O)O[C@]1(C(=O)OCCl)CC[C@@H]2[C@H]3CCC4=CC(=O)C=C[C@]4(C)[C@@H]3[C@@H](O)C[C@@]21C", 0.509),
    ("CCc1ccc(C=C2SC(=S)NC2=O)cc1", -0.104),
    ("COc1ccc(Cc2ccc(NC(N)=O)cc2)cc1-c1cccc(Cl)c1", 0.762),
]
